compounds and their reported pIC50
target: 5-hydroxytryptamine receptor 2A (Homo sapiens); test: biochemical
Sequence (P28223 whole entry): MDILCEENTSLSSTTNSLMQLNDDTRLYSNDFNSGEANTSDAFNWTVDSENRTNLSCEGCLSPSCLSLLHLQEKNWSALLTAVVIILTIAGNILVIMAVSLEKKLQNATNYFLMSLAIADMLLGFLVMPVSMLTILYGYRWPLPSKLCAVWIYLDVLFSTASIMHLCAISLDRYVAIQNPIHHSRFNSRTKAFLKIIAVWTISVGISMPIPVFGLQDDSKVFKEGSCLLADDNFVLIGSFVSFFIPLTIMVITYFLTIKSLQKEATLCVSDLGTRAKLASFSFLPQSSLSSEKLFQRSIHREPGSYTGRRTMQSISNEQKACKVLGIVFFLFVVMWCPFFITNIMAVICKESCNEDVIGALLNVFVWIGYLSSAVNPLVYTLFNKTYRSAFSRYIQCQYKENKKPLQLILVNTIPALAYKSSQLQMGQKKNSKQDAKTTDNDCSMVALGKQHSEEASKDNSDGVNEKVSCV
Description: Binding affinity for human cloned 5-hydroxytryptamine 2A receptor expressed in L929 cells using [125I]R91150 as radioligand
pIC50: −log10 of the molar value.

Compound	Target Or Test System	Result
CN(C)C(=O)C1CC2c3ccccc3Cc3ccccc3N2O1 (centres undefined)	5-hydroxytryptamine receptor 2A (Homo sapiens)	< 6.00
Clc1cccc(N2CCN(CC3CC4c5ccccc5Cc5ccccc5N4O3)CC2)c1 (centres undefined)	5-hydroxytryptamine receptor 2A (Homo sapiens)	< 6.00
c1ccc2c(c1)Cc1ccccc1N1OC(CN3CCNCC3)CC21 (centres undefined)	5-hydroxytryptamine receptor 2A (Homo sapiens)	< 6.00
CN(C)CC1(C)CC2c3ccccc3Cc3ccccc3N2O1 (stereo in doubt; trans)	5-hydroxytryptamine receptor 2A (Homo sapiens)	< 6.00
CN(CC1CC2c3ccccc3Cc3ccccc3N2O1)C(=O)C(F)(F)F (centres undefined)	5-hydroxytryptamine receptor 2A (Homo sapiens)	< 6.00

Request: Using the record for O=C1c2ccccc2C(=O)N1CC1CC2c3ccccc3Cc3ccccc3N2O1 (centres undefined) , report its pIC50.
Result: < 6.00

Request: Same for CN(C)CCCCC1CC2c3ccccc3Cc3ccccc3N2O1 (centres undefined)
Result: < 6.00

Request: Same question for CN(C)CCCC1CC2c3ccccc3Cc3ccccc3N2O1 (centres undefined) please.
Result: 8.41

Request: Thanks! And CCN(CC)CC1CC2c3ccccc3Cc3ccccc3N2O1 (centres undefined) ?
Result: 7.37

Request: Cool, now c1ccc2c(c1)CN(CC1CC3c4ccccc4Cc4ccccc4N3O1)C2 (centres undefined)
Result: < 6.00

Request: Would you mind doing CN(C)CC1CC2c3ccccc3Cc3ccccc3N2O1 (stereo in doubt; 2a) as well?
Result: 7.64

Request: c1ccc(N2CCN(CC3CC4c5ccccc5Cc5ccccc5N4O3)CC2)cc1 (centres undefined) ?
Result: < 6.00

Request: Similarly, CC(C)N(CC1CC2c3ccccc3Cc3ccccc3N2O1)C(C)C (centres undefined) ?
Result: < 6.00

Request: Here is the next compound: CN(C)CC1CC2c3ccccc3Cc3ccccc3N2O1 (trans isomer)
Result: < 6.00

---

target: Histamine H1 receptor (Homo sapiens); assay: Binding affinity for human cloned Histamine H1 receptor expressed in CHO cells using [3H]pyrilamine as radioligand
Sequence (P35367 whole entry): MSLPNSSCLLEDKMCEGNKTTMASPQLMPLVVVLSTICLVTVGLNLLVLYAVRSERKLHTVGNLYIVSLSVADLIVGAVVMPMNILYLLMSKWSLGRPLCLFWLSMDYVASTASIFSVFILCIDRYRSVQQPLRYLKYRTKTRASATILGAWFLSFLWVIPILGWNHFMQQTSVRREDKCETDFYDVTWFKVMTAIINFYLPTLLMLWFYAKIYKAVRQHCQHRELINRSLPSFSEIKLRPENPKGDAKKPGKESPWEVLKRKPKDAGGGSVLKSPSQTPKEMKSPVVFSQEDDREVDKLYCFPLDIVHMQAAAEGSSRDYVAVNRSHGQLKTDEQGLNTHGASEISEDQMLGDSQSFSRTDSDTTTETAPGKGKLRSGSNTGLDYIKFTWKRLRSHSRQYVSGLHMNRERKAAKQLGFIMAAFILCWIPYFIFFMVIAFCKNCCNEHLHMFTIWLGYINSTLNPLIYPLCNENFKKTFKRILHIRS
pIC50: −log10 of the molar value.
The compounds listed here are annotated with their pIC50.

Reference set, count: 5
Compound	Result
CN(C)C(=O)C1CC2c3ccccc3Cc3ccccc3N2O1 (centres undefined)	< 6.00
Clc1cccc(N2CCN(CC3CC4c5ccccc5Cc5ccccc5N4O3)CC2)c1 (centres undefined)	< 6.00
O=C1c2ccccc2C(=O)N1CC1CC2c3ccccc3Cc3ccccc3N2O1 (centres undefined)	< 6.00
CN(C)CC1CC2c3ccccc3Cc3ccccc3N2O1 (trans isomer)	< 6.00
c1ccc2c(c1)CN(CC1CC3c4ccccc4Cc4ccccc4N3O1)C2 (centres undefined)	< 6.00

Request: Which pIC50 value belongs to CN(C)CCCCC1CC2c3ccccc3Cc3ccccc3N2O1 (centres undefined) ?
Result: < 6.00

Request: Param item: CN(CC1CC2c3ccccc3Cc3ccccc3N2O1)C(=O)C(F)(F)F (centres undefined)
Result: < 6.00

---

biological target: 5-hydroxytryptamine receptor 2C (Rattus norvegicus) (UniProt P08909); experiment: In vivo activity in rat mCPP challenge test following p.o. administration.; assay type: functional, organism-based
Sequence (P08909 whole entry): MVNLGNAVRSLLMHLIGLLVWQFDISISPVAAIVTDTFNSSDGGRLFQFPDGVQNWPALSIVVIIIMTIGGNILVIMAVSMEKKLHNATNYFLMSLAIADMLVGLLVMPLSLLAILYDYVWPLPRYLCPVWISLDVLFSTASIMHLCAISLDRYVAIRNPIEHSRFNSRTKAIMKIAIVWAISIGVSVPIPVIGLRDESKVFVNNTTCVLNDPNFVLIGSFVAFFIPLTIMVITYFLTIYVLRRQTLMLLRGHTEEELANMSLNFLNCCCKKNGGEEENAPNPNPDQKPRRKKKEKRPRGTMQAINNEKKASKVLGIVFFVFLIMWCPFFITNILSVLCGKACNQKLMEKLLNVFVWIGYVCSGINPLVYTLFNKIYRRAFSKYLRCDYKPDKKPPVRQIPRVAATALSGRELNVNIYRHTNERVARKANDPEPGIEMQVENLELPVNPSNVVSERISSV
Recorded Endpoint: ED50

Worked set:
Molecule	Target Or Test System	Recorded Endpoint	Result
c1ccc2c(c1)CN(CC1CC3c4ccccc4Cc4ccccc4N3O1)C2 (stereo not drawn)	5-hydroxytryptamine receptor 2C (Rattus norvegicus) (UniProt P08909)	ED50	> 2.5 mg/kg
CN(C)CCC1CC2c3ccccc3Cc3ccccc3N2O1 (stereo not drawn)	5-hydroxytryptamine receptor 2C (Rattus norvegicus) (UniProt P08909)	ED50	2.5 mg/kg

Request: # query: ED50 of entry CN(CC1CC2c3ccccc3Cc3ccccc3N2O1)C(=O)C(F)(F)F (stereo not drawn)
Result: > 2.5 mg/kg
